- experiment summary: in vivo
- setup conditions: male, Sprague-Dawley, rat, brain, ip, 50 mg/kg
Counter-ions that a name gives are not always drawn.
quantity name: t max (min)
The reply should contain only the number, in min.

Param item = CN(C)C(=N)N=C(N)N [metformin hydrochloride] ; retrieve measured t max. 30

* * *

- experiment summary: in vitro
- setup conditions: mouse, BV-2 microglial cells
Structures can show the parent of a compound that is named as a salt.
quantity name: Km at 15 min (mM)
The reply should contain only the number, in mM.

Param item = CN(C)C(=N)N=C(N)N [metformin hydrochloride] ; retrieve measured Km at 15 min. 7.1

* * *

- experiment summary: in vivo
- setup conditions: male, Sprague-Dawley, rat, plasma, ip, 50 mg/kg
Counter-ions that a name gives are not always drawn.
quantity name: MRT last (h)
The reply should contain only the number, in h.

Param item = CN(C)C(=N)N=C(N)N [metformin hydrochloride] ; retrieve measured MRT last. 3.48

* * *

- experiment summary: in vivo
- setup conditions: male, Sprague-Dawley, rat, brain, intraperitoneal, 50 mg/kg
Structures can show the parent of a compound that is named as a salt.
quantity name: concentration at 2 h (ng/g)
The reply should contain only the number, in ng/g.

Param item = CN(C)C(=N)N=C(N)N [metformin hydrochloride] ; retrieve measured concentration at 2 h. 110

* * *

- experiment summary: in vivo
- setup conditions: male, Sprague-Dawley, rat, brain, ip, 50 mg/kg
Structures can show the parent of a compound that is named as a salt.
quantity name: AUC(0-inf) (ng·h/mL)
The reply should contain only the number, in ng·h/mL.

Param item = CN(C)C(=N)N=C(N)N [metformin hydrochloride] ; retrieve measured AUC(0-inf). 1890

* * *

- experiment summary: in vivo
- setup conditions: male, Sprague-Dawley, rat, plasma, ip, 50 mg/kg
Structures can show the parent of a compound that is named as a salt.
quantity name: AUC(0-t)

Param item = CN(C)C(=N)N=C(N)N [metformin hydrochloride] ; retrieve measured AUC(0-t). 6590 ng·h/mL

* * *

- experiment summary: in vivo
- setup conditions: male, Sprague-Dawley, rat, brain, ip, 50 mg/kg
Where a name gives a salt, the structure may show the parent alone.
quantity name: Cmax (ng/g)
The reply should contain only the number, in ng/g.

Param item = CN(C)C(=N)N=C(N)N [metformin hydrochloride] ; retrieve measured Cmax. 320

* * *

- experiment summary: in vivo
- setup conditions: male, Sprague-Dawley, rat, plasma, ip, 50 mg/kg
Counter-ions that a name gives are not always drawn.
quantity name: AUC (ng·h/mL)
The reply should contain only the number, in ng·h/mL.

Param item = CN(C)C(=N)N=C(N)N [metformin hydrochloride] ; retrieve measured AUC. 7170

* * *

- experiment summary: in vivo
- setup conditions: male, Sprague-Dawley, rat, plasma, ip, 50 mg/kg
Structures can show the parent of a compound that is named as a salt.
quantity name: t max
Express the reported value numerically, then name its unit.

Param item = CN(C)C(=N)N=C(N)N [metformin hydrochloride] ; retrieve measured t max. 30 min

* * *

- experiment summary: in vivo
- setup conditions: male, Sprague-Dawley, rat, plasma, ip, 50 mg/kg
Counter-ions that a name gives are not always drawn.
quantity name: Cmax (ng/mL)
The reply should contain only the number, in ng/mL.

Param item = CN(C)C(=N)N=C(N)N [metformin hydrochloride] ; retrieve measured Cmax. 6630

* * *

- experiment summary: in vivo
- setup conditions: male, Sprague-Dawley, rat, plasma, ip, 50 mg/kg
Counter-ions that a name gives are not always drawn.
quantity name: AUC(0-inf) (µg·h/mL)
The reply should contain only the number, in µg·h/mL.

Param item = CN(C)C(=N)N=C(N)N [metformin hydrochloride] ; retrieve measured AUC(0-inf). 7.17
